binders and their reported pKd
Target: T1, Mouse NRP-1 His (mouse, UniProt P97333 22-856)
T1 construct: Recombinant monomeric protein; also called mNRP-1; not shown: His tag
T1 sequence (P97333 22-856 limits assumed): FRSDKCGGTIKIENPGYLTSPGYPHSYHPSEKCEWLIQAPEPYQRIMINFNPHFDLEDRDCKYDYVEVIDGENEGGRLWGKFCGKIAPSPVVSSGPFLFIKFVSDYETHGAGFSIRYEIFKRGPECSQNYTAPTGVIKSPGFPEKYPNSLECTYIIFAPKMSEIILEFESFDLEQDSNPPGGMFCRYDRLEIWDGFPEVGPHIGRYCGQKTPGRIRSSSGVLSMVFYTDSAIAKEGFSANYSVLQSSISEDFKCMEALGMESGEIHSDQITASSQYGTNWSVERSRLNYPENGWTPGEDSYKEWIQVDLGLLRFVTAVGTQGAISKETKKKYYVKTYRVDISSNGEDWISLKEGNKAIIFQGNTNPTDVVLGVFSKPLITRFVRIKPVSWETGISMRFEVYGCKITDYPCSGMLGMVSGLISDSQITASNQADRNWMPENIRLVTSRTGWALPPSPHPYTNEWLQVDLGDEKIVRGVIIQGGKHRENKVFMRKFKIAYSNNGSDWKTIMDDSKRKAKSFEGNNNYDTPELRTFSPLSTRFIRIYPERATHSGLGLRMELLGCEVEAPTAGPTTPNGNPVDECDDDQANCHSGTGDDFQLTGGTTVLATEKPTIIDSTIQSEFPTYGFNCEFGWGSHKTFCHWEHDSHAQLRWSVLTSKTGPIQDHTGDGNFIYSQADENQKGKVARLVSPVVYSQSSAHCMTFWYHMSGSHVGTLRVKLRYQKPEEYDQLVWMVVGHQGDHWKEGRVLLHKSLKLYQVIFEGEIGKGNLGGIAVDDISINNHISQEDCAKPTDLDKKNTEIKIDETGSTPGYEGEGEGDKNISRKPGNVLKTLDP
Test: BLI ForteBio, IgG1 N297A on AHQ sensor, 100 nM monomeric antigen, 1:1 fit
pKd: −log10 of the molar value.
parameter: pKd

{"binder": "MAB5 (antibody, V domains shown) VH: QVQLVQSGAEVKKPGASVKVSCKASGYTFTSYYMHWVRQAPGQGLEWMGIINPQGGDTSYAQKFQGRVTMTRDTSTSTVYMELSSLRSEDTAVYYCARDRGMYYASGFGPWGQGTLVTVSS VL: EIVMTQSPGTLSLSPGERATLSCRASQSVSSSYLAWYQQKPGQAPRLLIYGASNRATGIPDRFSGSGSGTDFTLTISRLEPEDFAVYYCQQLSSFPITFGGGTKVEIK", "numeric_result": 8.30}
{"binder": "MAB2 (antibody, V domains shown) VH: QVQLVQSGAEVKKPGASVKVSCKASGYTFRSYYMLWVRQAPGQGLEWMGIIDPSDGSTSYAQKFQGRVTMTRDASTSTVYMELSSLRSEDTAVYYCARGARRITGYGMDVWGQGTTVIVSS VL: DIQMTQSPSSVSASVGDRVTITCRASQGISSWLAWYQQKPGKAPKLLIYAASNLQSGVPSRFSGSGSGTDFTLTISSLQPEDFATYYCQQASVFPFTFGGGTKVEIK", "numeric_result": 8.71}
{"binder": "MAB9 (antibody, V domains shown) VH: EVQLLESGGGLVQPGGSLRLSCAASGFTFKSYAMVWVRQAPGKGLEWVSIISGSGGATYYADSVKGRFTISRDNSKNTLYLQMNSLRAEDTAVYYCAKDPGYDSSRYYYSNYGMDVWGQGTTVTVSS VL: DIQMTQSPSSLSASVGDRVTITCRASQSISSYLNWYQQKPGKAPKLLIYGASSLQSGVPSRFSGSGSGTDFTLTISSLQPEDFATYYCQQTYSLYTFGGGTKVEIK", "numeric_result": 9.25}
